Test system: Ba/F3 cells expressing EGFR WT
procedure details: Transduced Ba/F3 cell proliferation inhibitory activity, EGFR WT
Type: cell-based
test conditions: Mus musculus, BaF3, 72 hours
experimental readout: GI50

Solved entries (count: 3):
> print(dat)
                               query.smiles                   tested.system  experimental.readout  reported.measurement
1  C=CC(=O)N1CCC(Oc2cc3c(Nc4cc(-c5ccco5)ccc4OC)ncnc3cc2OC)CC1  Ba/F3 cells expressing EGFR WT                  GI50             ≤ 0.05 µM
2  COc1cc2ncnc(Nc3cc(-c4ccco4)ccc3OC)c2cc1NC(=O)/C=C/[C@H]1CCCN1C  Ba/F3 cells expressing EGFR WT                  GI50             ≤ 0.05 µM
3  C=CC(=O)N1CCC(Oc2cc3c(Nc4cc(-c5ccc(F)cc5F)ccc4OC)ncnc3cc2OC)CC1  Ba/F3 cells expressing EGFR WT                  GI50        0.05 to 0.1 µM

What value of GI50 has been reported for the following molecule? COc1cc2ncnc(Nc3cc(-c4ccco4)ccc3OC)c2cc1NC(=O)/C(F)=C\[C@H]1CCCN1C
≤ 0.05 µM

Values from patent US20240246940A1
